system.name: T1, recombinant human RON SEMA and PSI domains (human, UniProt Q04912 25-571)
T1 construct: domain: SEMA+PSI; Commercial protein (R&D Systems); also called rhRON SEMA+PSI; hRON SEMA+PSI
experiment.description: SPR, purified Ab captured on anti-human IgG Fc, 25 C
endpoint.name: kon (M⁻¹ s⁻¹)
Supply the numeric figure in M⁻¹ s⁻¹, leaving out any unit text.

>  <binder>
Sh07F01-2 (antibody, human IgG1, kappa, V domains shown, also called Chimeric 07F01 C102S) VH: EVKLLESGGGLVQPGGSLKLSCAASGFDFSRHWMSWVRLAPGKGLEWIAEINPDSRTINYTPSLKEKFIISRDNAKNSLFLQMNRVRSEDTALYYCARRVRIHYYGAMDSWGQGTSVTVSS VL: DIVLTQSQKIVSTSVGARVSVTCKASQNVGSSLVWYQQKPGQSPKTLIYSASFRYSGVPDRFTGSGSGTDFTLTISNVQSEDLADYFCQQYNNYPLTFGAGTKLELKR

>  <measured.value>
1.2e+06

$$$$

Req: Entry under review: Sh07F01-83 (antibody, human IgG1, kappa, V domains shown, Humanized, human IgG1/kappa: Sh07F01 Hv3-48 D28T T60A L63V E65G IgG1 + Sh07F01 Kv1-9 F1 Kappa) VH: EVQLVESGGGLVQPGGSLRLSCAASGFTFSRHWMSWVRQAPGKGLEWVSEINPDSRTINYAPSVKGRFTISRDNAKNSLYLQMNSLRAEDTAVYYCARRVRIHYYGAMDSWGQGTTVTVSS VL: DIQLTQSPSFLSASVGDRVTITCRASQNVGSSLVWYQQKPGKAPKTLIYSASFLYSGVPSRFSGSGSGTEFTLTISSLQPEDFATYYCQQYNNYPLTFGGGTKVEIKR . Reported kon?
Resp: 1.6e+06

Req: Entry under review: Sh29B06-23 (antibody, human IgG1, kappa, V domains shown, Humanized, human IgG1/kappa: Hu29B06 Hv4-59 IgG1 (CDR graft with back mutations) + Sh29B06 Kv2-28 Kappa) VH: QVQLQESGPGLVKPSETLSLTCTVSGDSITSGYWNWIRKPPGKKLEYMGYISYSGKTYYNPSLKSRITISRDTSKNQYSLKLSSVTAADTAVYYCARSKYDYAMDYWGQGTLVTVSS VL: DIVMTQSPLSLPVTPGEPASISCRASEIVDNFGISFMNWYLQKPGQSPQLLIYAASNQGSGVPDRFSGSGSGTDFTLKISRVEAEDVGVYYCQQSKEVPPTFGGGTKVEIKR . Reported kon?
Resp: 670000

Every entry's value here was drawn from patent US20120027773A1.
